# measured.target: glucagon receptor (GCGR), primary cAMP assay (human, UniProt P47871 26-477)
# Sequence (P47871 26-477): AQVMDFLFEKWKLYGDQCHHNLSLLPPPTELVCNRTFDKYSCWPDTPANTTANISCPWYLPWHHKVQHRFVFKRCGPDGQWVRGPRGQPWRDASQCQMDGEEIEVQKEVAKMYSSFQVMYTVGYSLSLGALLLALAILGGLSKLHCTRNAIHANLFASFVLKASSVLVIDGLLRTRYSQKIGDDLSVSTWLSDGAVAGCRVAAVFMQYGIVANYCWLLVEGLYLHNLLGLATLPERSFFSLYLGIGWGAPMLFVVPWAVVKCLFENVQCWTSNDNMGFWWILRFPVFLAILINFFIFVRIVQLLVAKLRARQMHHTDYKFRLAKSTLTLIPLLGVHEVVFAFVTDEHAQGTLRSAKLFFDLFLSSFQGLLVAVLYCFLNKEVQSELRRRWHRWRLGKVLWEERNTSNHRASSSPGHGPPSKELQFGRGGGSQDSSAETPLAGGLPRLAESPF
# method.description: cell-based or functional assay
Starred links: 1 amine or outer side, 2 acyl side, 3 side chain; linkers in the order of their positions; H or OH if unused. Non-standard residues stand in square brackets, D forms with d. Groups on a side chain read outwards from the residue. Primed or numbered codes have the meaning given here. No end group written: not given here. *: point of attachment. γGlu = O=C(O)[C@H](CCC(=O)[*:2])N[*:1]; Palmitoyl = CCCCCCCCCCCCCCCC(=O)*; αMeF = C[C@](N)(Cc1ccccc1)C(=O)O; Myristoyl = CCCCCCCCCCCCCC(=O)*; αMeK = C[C@](N)(CCCCN)C(=O)O; Lauroyl = CCCCCCCCCCCC(=O)*; αMeS = C[C@](N)(CO)C(=O)O; PEG2′ = not defined here; Aib = CC(C)(N)C(=O)O
measurement.kind: Primary assay EC50 (cAMP), n2 (nM)

| binder | result |
| --- | --- |
| H[Aib]EGS[αMeF]TSDVSK([PEG2′-PEG2′-γGlu-Palmitoyl])YLEGEAA[αMeK]EFIK([PEG2′-PEG2′-γGlu-Palmitoyl])WVVEGG-NH2 [SEQ ID NO: 251] | 21.3 |
| H[Aib]EGS[αMeF]TSDVSK([PEG2′-PEG2′-γGlu-Palmitoyl])FLEGEAA[αMeK]EFIK([PEG2′-PEG2′-γGlu-Palmitoyl])FVVEGG-NH2 [SEQ ID NO: 250] | 21.6 |
| H[Aib]EGS[αMeF]TSDV[αMeS]SYK([PEG2′-PEG2′-γGlu-Palmitoyl])EGEAA[αMeK]EFIAWK([PEG2′-PEG2′-γGlu-Palmitoyl])VEGG-NH2 [SEQ ID NO: 273] | 21.5 |
| H[Aib]EGS[αMeF]TSDV[αMeS]SYK([PEG2′-PEG2′-γGlu-Palmitoyl])EGEAA[αMeK]EFIK([PEG2′-PEG2′-γGlu-Palmitoyl])WVVEGG-NH2 [SEQ ID NO: 271] | 21.4 |
| H[Aib]EGS[αMeF]TSDV[αMeS]SK([PEG2′-PEG2′-γGlu-Lauroyl])LEGEAA[αMeK]EFIK([PEG2′-PEG2′-γGlu-Lauroyl])WVVEGG-NH2 [SEQ ID NO: 262] | 22.5 |
| H[Aib]EGS[αMeF]TSDV[αMeS]SK([PEG2′-PEG2′-γGlu-Myristoyl])LEGEAA[αMeK]E[αMeF]IAK([PEG2′-PEG2′-γGlu-Myristoyl])VVEGG-NH2 [SEQ ID NO: 408] | 21.5 |
| H[Aib]EGTFTSDVSK([PEG2′-PEG2′-γGlu-Palmitoyl])FLEGEAAEEFIK([PEG2′-PEG2′-γGlu-Palmitoyl])WVVEGG-NH2 [SEQ ID NO: 243] | 21.5 |
| H[Aib]EGS[αMeF]TSDV[αMeS]SK([PEG2′-PEG2′-γGlu-Palmitoyl])LEGEAA[αMeK]E[αMeF]IAK([PEG2′-PEG2′-γGlu-Palmitoyl])VVEGG-NH2 [SEQ ID NO: 409] | 21.5 |

Sourced from patent US20200079833A1
